- Tested on: Hep G2 cells
- Experimental Protocol: In vitro toxicity: Hep G2 cell viability by CellTiter-Glo
- Format: cell-based
- Study Conditions: Formulation No. 001, RNA No. 331, 1 μg/mL RNA-LNPs, 72 hours post transfection, cell only = 100%
Quantity Measured: In vitro cell viability (%) (Mean)

>>> print(df.to_string())
                                   compound  result
0  CCCCCCCC/C=C\CCCCCCCC(=O)NC(COC(=O)NCCN1CCCCC1)C(=O)OCCCCCC(=O)OCC(CCCCCCCC)CCCCCCCCCC (stereo not drawn)  81.74%
1  CCCCC/C=C\C/C=C\CCCCCCCCOC(=O)NC(COC(=O)NCCN1CCCC1)C(=O)OCCCCCC(=O)OCC(CCCCCCCC)CCCCCCCCCC (stereo not drawn)  94.80%
2  CCCCCCCCCC(=O)OCCCCCCCOC(=O)C(COC(=O)NCCN1CCCCC1)NC(=O)OCCCCCCCCOC(=O)C(CCCCCC)CCCCCCCC (stereo not drawn)  95.05%
3  CCCCCCCC/C=C\CCCCCCCC(=O)NC(COC(=O)NCCN1CCCCC1)C(=O)OCCCCCCCC(=O)OC(CCCCCCCC)CCCCCCCC (stereo not drawn)  73.49%
4  CCCCCCCCC(CCCCCC)C(=O)OCCCCCCCCOC(=O)NC(COC(=O)NCCN(C)C)C(=O)OCCCCCCCCOC(=O)C(CCCCCC)CCCCCCCC (stereo not drawn)  93.23%

Which In vitro cell viability (%) (Mean) is listed for CCCCCCCCC(CCCCCCCC)OC(=O)CCCCCCCOC(=O)C(COC(=O)NCCN1CCCCCC1)NC(=O)OCCCCCCCCOC(=O)C(CCCCCC)CCCCCCCC (stereo not drawn) ?
88.39%

Quick one: In vitro cell viability (%) (Mean) for CCCCC/C=C\C/C=C\CCCCCCCCOC(=O)NC(COC(=O)NCCN1CCCCCC1)C(=O)OCCCCCCCCOC(=O)C(CCCCCC)CCCCCCCC (stereo not drawn) ?
86.94%

Entry under review: CCCCCCCCCC(=O)OCCCCCCCOC(=O)C(COC(=O)NCCN(C)C)NC(=O)OCCCCCCCCOC(=O)C(CCCCCC)CCCCCCCC (stereo not drawn) . Reported In vitro cell viability (%) (Mean)?
92.08%

Sample CCCCC/C=C\C/C=C\CCCCCCCCOC(=O)C(COC(=O)NCCN1CCCCC1)NC(=O)OCCCCCCCCOC(=O)C(CCCCCC)CCCCCCCC (stereo not drawn) — what was its In vitro cell viability (%) (Mean)?
85.92%

Which value of In vitro cell viability (%) (Mean) has been reported for CCCCC/C=C\CCOC(=O)CCCCCOC(=O)C(COC(=O)NCCN1CCCCCC1)NC(=O)OCCCCCCCCOC(=O)C(CCCCCC)CCCCCCCC (stereo not drawn) in the records?
95.28%

Which In vitro cell viability (%) (Mean) is reported for this compound? CCCCCCCCCCCOC(=O)CCCCCOC(=O)C(COC(=O)NCCN1CCCCC1)NC(=O)OCCCCCCCCOC(=O)C(CCCCCC)CCCCCCCC (stereo not drawn)
88.59%
